- Study target: Lp-PLA2 in human plasma (Homo sapiens, UniProt Q13093)
- Construct: from tissue; host or cells: pooled human plasma
- Sequence (Q13093 22-441): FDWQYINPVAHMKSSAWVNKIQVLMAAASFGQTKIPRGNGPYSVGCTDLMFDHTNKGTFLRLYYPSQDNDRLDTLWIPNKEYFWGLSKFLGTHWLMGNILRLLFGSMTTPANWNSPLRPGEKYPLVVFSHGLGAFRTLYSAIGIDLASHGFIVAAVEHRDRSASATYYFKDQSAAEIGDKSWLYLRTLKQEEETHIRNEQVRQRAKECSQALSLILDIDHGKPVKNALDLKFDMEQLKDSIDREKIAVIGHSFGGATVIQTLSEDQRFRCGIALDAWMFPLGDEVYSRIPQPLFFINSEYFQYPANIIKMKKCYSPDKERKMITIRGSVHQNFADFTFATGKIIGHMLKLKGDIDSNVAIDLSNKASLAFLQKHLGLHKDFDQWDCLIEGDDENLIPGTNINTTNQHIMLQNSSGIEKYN
- Assay name: Lp-PLA2 human plasma assay (Thio-PAF assay)
- Type: biochemical
- Settings: pooled human plasma; read-out: pIC50 values in the thio-PAF assay (converted)
Structures can show the parent of a compound that is named as a salt.
Observable: IC50

Worked examples, 3 compounds total:
Compound: CN1CCCn2c1cc(OCc1ccc(Oc3ccc(C(F)(F)F)cc3)c(C#N)c1)nc2=O [Example 29]
IC50: ≤ 100 nM
--
Compound: CN1CCCn2c1cc(OCc1ccc(F)c(F)c1)nc2=O [Example 10, trifluoroacetic acid salt]
IC50: ≤ 100 nM
--
Compound: N#Cc1ccc(Oc2ccc(COc3cc4n(c(=O)n3)CCCN4)cc2C#N)cc1Cl [Example 106]
IC50: ≤ 100 nM

# return IC50 for each item in the list
1. O=c1nc(OCc2ccc(Oc3cccc(F)c3)c(F)c2)cc2n1CCCN2 [Example 116]
2. O=c1nc(OCc2ccc(Oc3ccc(F)c(F)c3)cc2)cc2n1CCCN2 [Example 119]
3. CN1CCCn2c1cc(OCc1ccc(Oc3cccc(C(F)(F)F)c3)c(C#N)c1)nc2=O [Example 1]
4. CN1CCCn2c1cc(OCc1ccc(F)cc1)nc2=O [Example 8]
5. CN1CCCn2c1cc(OCc1cc(F)c(Oc3ccc(C(F)(F)F)nc3)c(F)c1)nc2=O [Example 3]
6. CN1CCCn2c1cc(OCc1cc(F)c(Oc3ccc(F)cc3)c(F)c1)nc2=O [Example 87]

≤ 100 nM
≤ 100 nM
≤ 100 nM
≤ 1000 nM
≤ 100 nM
≤ 1000 nM

----------
Give IC50 for every item shown.
- Study target: Lp-PLA2 in human plasma (Homo sapiens)
- Construct: from tissue; host or cells: pooled human plasma
- Assay name: Lp-PLA2 human plasma assay (Thio-PAF assay)
- Format: biochemical
- Settings: pooled human plasma; read-out: pIC50 values in the thio-PAF assay (converted)

Worked examples, 3 compounds total:
Smiles: N#Cc1cc(COc2cc3n(c(=O)n2)CCCN3)ccc1Oc1ccc(Cl)c(C(F)(F)F)c1
IC50: ≤ 100 nM
//
Smiles: CN1CCCn2c1cc(OCc1ccc(Oc3ccc(F)cc3)c(F)c1)nc2=O
IC50: ≤ 1000 nM
//
Smiles: O=c1nc(OCc2ccc(Oc3ccc(Cl)c(C(F)(F)F)c3)c(F)c2)cc2n1CCCN2
IC50: ≤ 100 nM

Moving on to the next compound.
Output measured IC50 for this item: CN1CCCn2c1cc(OCc1ccc(Oc3ccc(F)c(Cl)c3)c(F)c1)nc2=O
≤ 100 nM

----------
Give IC50 for every item shown.
- Study target: recombinant human Lp-PLA2 (Homo sapiens)
- Assay name: Recombinant human Lp-PLA2 assay (rhLp-PLA2, PED6 assay)
- Format: biochemical
- Settings: upper limit for pIC50 in this assay is 9.3; read-out: pIC50 values in the PED6 assay (converted)

Worked examples, 5 compounds total:
Smiles: CN1CCCn2c1cc(OCc1ccc(Oc3ccc(Cl)c(F)c3)c(C#N)c1)nc2=O
Study target: recombinant human Lp-PLA2 (Homo sapiens)
Value observed: ≤ 1 nM

Smiles: CN1CCCn2c1cc(OCCc1ccc(Oc3ccc(Cl)c(F)c3)cc1)nc2=O
Study target: recombinant human Lp-PLA2 (Homo sapiens)
Value observed: ≤ 10 nM

Smiles: CN1CCCn2c1cc(OCc1cc(F)c(Oc3ccc(F)c(Cl)c3)c(F)c1)nc2=O
Study target: recombinant human Lp-PLA2 (Homo sapiens)
Value observed: ≤ 1 nM

Smiles: CN1CCCn2c1cc(OCc1cc(F)c(Oc3cc(F)cc(F)c3)c(F)c1)nc2=O
Study target: recombinant human Lp-PLA2 (Homo sapiens)
Value observed: ≤ 1 nM

Smiles: CN1CCCn2c1cc(OCc1ccc(Oc3ccc(C(F)(F)F)nc3)c(F)c1)nc2=O
Study target: recombinant human Lp-PLA2 (Homo sapiens)
Value observed: ≤ 10 nM

# return IC50 for each item in the list
1. O=c1nc(OCc2cc(F)c(Oc3ccc(F)cc3)c(F)c2)cc2n1CCCN2
2. O=c1nc(OCc2ccc(Oc3ccc(F)cc3)c(F)c2)cc2n1CCCN2
3. CC(C)N1CCCn2c1cc(OCc1ccc(Oc3ccc(C(F)(F)F)nc3)c(F)c1)nc2=O

≤ 1 nM
≤ 1 nM
≤ 10 nM

----------
- Study target: recombinant human Lp-PLA2 (Homo sapiens, UniProt Q13093)
- Sequence (Q13093 22-441): as above
- Assay name: Recombinant human Lp-PLA2 assay (rhLp-PLA2, PED6 assay)
- Format: biochemical
- Settings: upper limit for pIC50 in this assay is 9.3; read-out: pIC50 values in the PED6 assay (converted)
Give IC50 for every item shown.

Worked examples, 3 molecules total:
Smiles: O=c1nc(OCc2cc(F)c(Oc3ccc(F)c(C(F)(F)F)c3)c(F)c2)cc2n1CCCN2
IC50: ≤ 1 nM
//
Smiles: N#Cc1cc(COc2cc3n(c(=O)n2)CCCN3)ccc1Oc1ccc(F)c(F)c1
IC50: ≤ 1 nM
//
Smiles: CC(C)N1CCCn2c1cc(OCc1ccc(F)c(F)c1)nc2=O
IC50: ≤ 10 nM

# return IC50 for each item in the list
1. CN1CCCn2c1cc(OCc1ccc(Oc3cccc(C(F)(F)F)c3)c(C#N)c1)nc2=O
2. CN1CCCn2c1cc(OCc1ccc(Oc3cccc(C(F)(F)F)n3)c(F)c1)nc2=O
3. O=c1nc(OCc2ccc(Oc3ccc(Cl)c(C(F)(F)F)c3)c(F)c2)cc2n1CCCN2

1: ≤ 10 nM; 2: ≤ 10 nM; 3: ≤ 1 nM

# return IC50 for each item in the list
1. CN1CCCn2c1cc(OCc1ccc(Oc3cccc(C(F)(F)F)c3)c(F)c1)nc2=O
2. O=c1nc(OCc2ccc(Oc3ccc(F)c(F)c3)c(F)c2)cc2n1CCCN2

["≤ 10 nM", "≤ 1 nM"]

----------
- Study target: recombinant human Lp-PLA2 (Homo sapiens, UniProt Q13093)
- Assay name: Recombinant human Lp-PLA2 assay (rhLp-PLA2, PED6 assay)
- Assay type: biochemical
- Settings: Table 1; upper limit for pIC50 in this assay is 9.3; read-out: rhLp-PLA2 (PED6 assay) (pIC50) (converted)
Give IC50 for every item shown.
One number for each entry, in nM.

Compound: CN1CCCn2c1cc(OCc1cc(F)c(F)c(F)c1)nc2=O [Example 21]
IC50 / nM: 2

Compound: CC(C)N1CCCn2c1cc(OCc1cc(F)c(F)c(F)c1)nc2=O [Example 42]
IC50 / nM: 5.01

Compound: CN1CCCn2c1cc(OCc1ccc(Oc3ccc(Cl)c(Cl)c3)cc1)nc2=O [Example 7]
IC50 / nM: 0.794

Compound: CN1CCCn2c1cc(OCc1ccc(Oc3cccc(C(F)(F)F)c3)c(F)c1)nc2=O [Example 28]
IC50 / nM: 2.51

Moving on to the next compound.
Output measured IC50 for this item: CN1CCCn2c1cc(OCc1ccc(Oc3cccnc3)c(C#N)c1)nc2=O [Example 76]
1.26

----------
- Study target: Lp-PLA2 in human plasma (Homo sapiens, UniProt Q13093)
- Construct: from tissue; host or cells: pooled human plasma
- Assay name: Lp-PLA2 human plasma assay (Thio-PAF assay)
- Type: biochemical
- Settings: pooled human plasma; read-out: pIC50 values in the thio-PAF assay (converted)
Observable: IC50

Worked examples, 3 compounds total:
Compound: CN1CCCn2c1cc(OCc1ccc(Oc3cccc(F)c3)c(C#N)c1)nc2=O [Example 80]
IC50: ≤ 100 nM

Compound: CN1CCCn2c1cc(OCc1ccc(Oc3ccc(C(F)(F)F)nc3)c(F)c1)nc2=O [Example 4]
IC50: ≤ 100 nM

Compound: CN1CCCn2c1cc(OCc1ccc(Oc3ccc(Cl)c(Cl)c3)cc1)nc2=O [Example 7]
IC50: ≤ 100 nM

Moving on to the next compound.
Output measured IC50 for this item: CN1CCCn2c1cc(OCCc1ccc(Oc3cccc(C(F)(F)F)c3)c(F)c1)nc2=O [Example 105]
≤ 100 nM

----------
Give IC50 for every item shown.
- Study target: recombinant human Lp-PLA2 (Homo sapiens, UniProt Q13093)
- Assay name: Recombinant human Lp-PLA2 assay (rhLp-PLA2, PED6 assay)
- Format: biochemical
- Settings: upper limit for pIC50 in this assay is 9.3; read-out: pIC50 values in the PED6 assay (converted)

Smiles: CN1CCCn2c1cc(OCc1cc(F)c(Oc3cccc(F)c3)c(F)c1)nc2=O
Study target: recombinant human Lp-PLA2 (Homo sapiens, UniProt Q13093)
Value observed: ≤ 10 nM

# return IC50 for each item in the list
1. O=c1nc(OCc2ccc(F)c(F)c2)cc2n1CCCN2
2. O=c1nc(OCc2cc(F)c(Oc3ccc(C(F)(F)F)nc3)c(F)c2)cc2n1CCCN2
3. Cc1ccc(Oc2ccc(COc3cc4n(c(=O)n3)CCCN4)cc2)cc1F
4. CN1CCCn2c1cc(OCc1ccc(Oc3cccc(C#N)c3)c(F)c1)nc2=O
5. N#Cc1cc(COc2cc3n(c(=O)n2)CCCN3)ccc1Oc1cccc(C(F)(F)F)c1
6. CN1CCCn2c1cc(OCc1ccc(Oc3cccc(Cl)c3)c(F)c1)nc2=O
7. CN1CCCn2c1cc(OCc1cc(F)c(Oc3cccc(Cl)c3)c(F)c1)nc2=O
8. O=c1nc(OCc2ccc(Oc3cccc(C(F)(F)F)c3)c(F)c2)cc2n1CCCN2

1. ≤ 10 nM
2. ≤ 1 nM
3. ≤ 10 nM
4. ≤ 10 nM
5. ≤ 1 nM
6. ≤ 10 nM
7. ≤ 1 nM
8. ≤ 1 nM

# return IC50 for each item in the list
1. N#Cc1ccc(Oc2ccc(COc3cc4n(c(=O)n3)CCCN4)cc2C#N)cc1Cl
2. CN1CCCn2c1cc(OCc1cc(F)c(Oc3ccc(Cl)c(F)c3)c(F)c1)nc2=O

1. ≤ 10 nM
2. ≤ 1 nM
